Entry source: PubChem BioAssay AID618

- measurement-protocol: inhibitors of MT1-MMP promoter transcription, cell-based, luciferase reporter, luminescence (AID 618);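 also: actives suppress MT1-MMP promoter-driven transcription so potencies describe inhibitors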
- particulars: MT1-MMP promoter luciferase reporter cells
The campaign covered roughly 87,000 compounds. About 540 (0.62%) were called active. No rule for the calls is given here. This is one part of a sample in which actives are shown more often than they occur. Entries with a potency or affinity are not part of this list.
Use one of these outcomes when replying: T for active, F for inactive

# lookup: test call for "CCOc1cc(OCC)cc(C(=O)O)c1"
F

How was "CC(=O)N1CCc2[nH]c3ccccc3c2C1" classified in this test?
F

So what was the verdict on "CCc1cn([C@H]2C[C@H](O)[C@@H](CO)O2)c(=O)[nH]c1=O" in this test?
F

Which outcome was assigned to "COc1ccc(-c2nc(-c3cccs3)c(-c3cccs3)[nH]2)cc1O" in this test?
F

# outcome recorded in this test, key = "COc1ccc(OCc2cccc(C(=O)O)c2)cc1"
T

Hi, sorry to bother you, what did the test record for "CC(C)=C1SC(N2CCN(Cc3ccccc3)CC2)=NC1=O" ?
F

Write down the call the test reported for this molecule. Item: "Cc1cc(N)n(-c2nc(-c3cccnc3)nc3ccccc23)n1"
F

In this assay, the call recorded for "Cc1cc(NC(=O)CSc2nc(C(C)C)nc3sc4c(c23)CCCC4)no1" was what?
F

Name the outcome recorded for "COc1cccc2cc(C(C)=O)c(=O)oc12" in the assay.
F

Test call, this molecule: "CCc1ccc(-c2nn[nH]n2)cc1"
F

For this molecule, state the assay outcome: "COc1cccc(NC2=NCC(=O)N2Cc2cccs2)c1"
F

What outcome does the record of this test show for "CCOC(=O)N1CCN(C(=O)c2ccc3nc(N4CCC(C)CC4)sc3c2)CC1" ?
F

Per the assay record, what outcome was assigned to "CCOc1ccc(OCc2ccc(C(=O)N3CCOCC3)cc2)cc1" ?
F

# fetch the recorded call for COc1ccc(CCn2c(C)cc3c(c2=O)C(c2ccc4c(c2)OCO4)C(C#N)=C(N)O3)cc1OC (stereo not drawn) here
F

Given COC(=O)C1=C(C)N(CCCC(=O)O)C(=O)NC1c1ccccc1Cl (stereo not drawn) , state the outcome it received in this test.
F

# fetch the recorded call for "CCN1C(=O)/C(=C2\C=Cc3ccccc3N2CC)OC1=S" here
F

Hi, do you know how "CC(C)COC(=O)CNc1n[nH]c(=S)[nH]c1=O" came out in this test?
F

# lookup: test call for "COc1ccc(-c2nc(-c3ccccc3)c(-c3cc([N+](=O)[O-])ccc3C)[nH]2)cc1O"
F

Tell me the assay call for Cc1ccc2c(c1)C(N1CCCC1=O)CC(c1ccco1)N2 (stereo not drawn) please.
T

Recorded test outcome, item CC(Oc1ccc(C(=O)NCCc2ccccc2)cc1)C(=O)O (stereo not drawn)
F

What call does the record list for "Cc1cccc(N=C2NN=C(c3ccc4c(c3)OCCO4)CS2)c1" ?
F

Could you please tell me the result logged for "CCOC(CNC(=O)c1ccc2nc(N3CCC(C)CC3)sc2c1)OCC" in this assay?
F

Status in this test for "CCOC(=O)c1cnc(SCC(=O)c2ccc(C)cc2)nc1N" ?
F

Called result for "Cc1ccc(-c2cn3nc(C)c(C)nc3n2)cc1"
T

Short answer needed: outcome of this test for "CCCN(CCC)S(=O)(=O)c1ccc(NS(=O)(=O)c2ccc(F)cc2)cc1" ?
F

How was "O=C1CS/C(=C/C(=O)c2ccccc2)N1" classified in this test?
F

# fetch the recorded call for "COC(=O)c1ccc(Cn2nc(C(F)(F)F)cc2C)cc1" here
F

Call for entry "O=c1[nH]c(=O)n([C@H]2C[C@H](O)[C@@H](CO)O2)cc1F" :
T

What was the test verdict on CC(C(=O)NC(=O)NC1CCCCC1)N1CCN(c2ccccn2)CC1 (stereo not drawn) ?
F

Query: recorded result category for "O=c1[nH]c(=O)n([C@H]2C[C@H](O)[C@@H](CO)O2)cc1C(F)(F)F" in this test
F

Give the logged outcome of this assay for the following molecule: "CCOC(=O)Cc1csc(SCC(=O)Nc2sc3c(c2C(N)=O)CCC3)n1"
F

How did this test come out for "Cc1nnc(NCCc2ccccc2)[nH]c1=O" ?
F

Lab log entry: "Cc1ccc2[nH]c(=O)c(-c3noc(C(C)C)n3)cc2c1" — outcome as called in the assay?
F

Hi, sorry to bother you, what did the test record for "CCCCCCc1ccc(OCC(=O)O)cc1OCC(=O)O" ?
F

Just curious, what result did "O=C1CSC(=NC2CCCCC2)N1" get here?
F

Hi, do you know how c1ccc(C2CC(c3ccccc3)n3ncnc3N2)cc1 (stereo not drawn) came out in this test?
F

# lookup: test call for "Cc1nc2nc(-c3ccccc3)cn2nc1C"
F

Lab log entry: c1ccc(C2C3=C(CCCC3)Nc3ncnn32)cc1 (stereo not drawn) — outcome as called in the assay?
F

Identify the outcome logged in this assay for the molecule shown: "COc1ccc2c(CC(=O)OCC(=O)c3ccc(F)cc3)coc2c1"
F

What was the test verdict on "CCOc1ccc(OCc2cccc(C(=O)N3CCOCC3)c2)cc1" ?
T

Assay outcome for CC(=O)c1cccc(NC(=O)N2CCCC2C(=O)NCc2ccc(F)cc2)c1 (stereo not drawn) : what was it?
F

Answer briefly: the call reported for "Nc1nonc1C(=O)NCCNCc1cc(Br)ccc1OCc1ccc(F)cc1" in this assay.
F

Record lookup: outcome of this test for "CCOc1ccc(OCc2cccc(C(=O)O)c2)cc1" ?
T

# lookup: test call for CCCCC(CC)CNC(=O)C1CCCN(S(=O)(=O)c2cnc[nH]2)C1 (stereo not drawn)
F

Please let me know the test result on file for "Nc1nonc1C(=O)NCCNCc1ccccc1OCc1ccccc1F" .
F

Hello, I am checking results. What call was entered for "CCCCOc1ccc(C(=O)Nc2cccc(C)n2)cc1" ?
F

Record lookup: outcome of this test for O=C(O)CN1C(=O)Nc2ccc(Br)cc2C1c1ccccc1 (stereo not drawn) ?
F

Per the assay record, what outcome was assigned to "CCOc1ccc(OCc2cccc(C(=O)N3CCCC3)c2)cc1" ?
F
